Where these numbers come from: ChEMBL document CHEMBL1201862

# System: HOP-62
# assay notes: NCI tumour cell line growth inhibition, 48 h
Activity calls are given as the source filed them. Rule as the data show it: active = GI50 up to about 1.1 µM and inactive = higher.
value type: GI50

Known GI50 results, listed for orientation:
Cn1c(=O)c2c(ncn2CCSS(=O)(=O)O)n(C)c1=O ... 86.9 µM (inactive)
c1ccc(C2C3=C(c4ccccc4CC3)N3c4cc5c(cc4=NC34CCCCC24)Nc2ccccc2N=5)cc1 (stereo not given) ... > 10 µM (inactive)
Cc1nn(-c2ccccc2)c(C)c1/C=N/NC(=O)c1sc(=S)n(-c2ccccc2)c1N ... 9.84 µM (inactive)
COc1cccc(-c2cc(=O)c3cc(N4CCCCC4)ccc3[nH]2)c1 ... < 0.0145 µM (active)

Next item in the queue.
Which GI50 is listed for CO/C(C)=N/CCC1=CCCCC1 ?
> 100 µM (inactive)

---

Each entry below carries its recorded GI50.
# Tested on: MOLT-4
# assay notes: NCI tumour cell line growth inhibition, 48 h
Activity calls are given as the source filed them. No stated cut-off is given here; in the data, active = GI50 up to about 1.1 µM and inactive = higher.

Known GI50 results, listed for orientation:
CCOC(=O)c1c(-c2ccc(Br)cc2)ccn1C ... > 10 µM (inactive)
CCCCNC(=O)Nc1c(C(N)=O)c2n(c1C(=O)OCC)CCCCC2 ... > 100 µM (inactive)
O=C1CCCn2c(nc3ccccc32)N1 ... > 100 µM (inactive)
Nc1ncnc2c1ncn2CC(O)CO (centres undefined) ... > 100 µM (inactive)
Brc1cccc(C2(CCCC3(c4cccc(Br)n4)OCCO3)OCCO2)n1 ... > 100 µM (inactive)
O=C1NN=C2C=C(c3ccc(Cl)cc3)CC(c3cccc(Cl)c3)C12 (centres undefined) ... 17.9 µM (inactive)
C=CCCCC1CCCNC1=S (centres undefined) ... > 100 µM (inactive)
COC(=O)/C=C1\CCC(C)O1 (centres undefined) ... > 100 µM (inactive)
CCCCCC[C@H]1C(=O)O[C@H](C)[C@H](NC(=O)c2cccc(NC=O)c2OC)C(=O)O[C@@H](C)[C@@H]1OC(=O)C(C)CC.CCCCCC[C@H]1C(=O)O[C@H](C)[C@H](NC(=O)c2cccc(NC=O)c2OC)C(=O)O[C@@H](C)[C@@H]1OC(=O)CC(C)C (some centres undefined) ... 6.65 µM (inactive)
CSC(=S)N/N=C(\C)c1ccc(S(=O)(=O)N(C)c2ccccc2)cc1 ... 19 µM (inactive)

Which GI50 is listed for Oc1cccc2nc3cc(CN4CCOCC4)c(CN4CCOCC4)cc3nc12 ?
31.9 µM (inactive)

Which GI50 is listed for C[N+](C)(C)CC1CCc2ccccc2C1=O (centres undefined) ?
2.32 µM (inactive)

---

# Test system: U-251
# assay notes: NCI tumour cell line growth inhibition, 48 h
The source made the active and inactive calls. No stated cut-off is given here; in the data, active = GI50 up to about 1.1 µM and inactive = higher.
Answer with one of the outcomes label 1 (active), label 0 (inactive)

// below: answered compounds
Cc1ccc(S(=O)(=O)NCCSCCSCCNS(=O)(=O)c2ccc(C)cc2)cc1 ... label 0
COc1ccc2c(c1)/C(=C\c1c(Cl)[nH]c3ccccc13)C(=O)N2 ... label 0
Cc1ccc2nc(-c3ccc(C(C)(C)C)cc3)oc(=O)c2c1 ... label 0
CCC(C)NC1=NCC(C)S1 (configuration not stated) ... label 0
Cc1ccc(-c2cc(-c3cc(-c4ccc(C)cc4C)[nH]n3)[nH]n2)c(C)c1 ... label 0
CCOC1=NC(C(F)(F)F)(C(F)(F)F)N=C(N2CCOCC2)O1 ... label 0
Cc1nc(-c2nc([N+](=O)[O-])c([N+](=O)[O-])[nH]2)cs1 ... label 0
NC(=O)c1csc(CCCCCCc2nc(C(N)=O)cs2)n1 ... label 0
COC(=O)C[C@H](COCc1ccccc1)NC(=O)C[C@H](COCc1ccccc1)NC(=O)OC(C)(C)C ... label 0
CC(=O)OC1COC(n2c(=S)n(-c3ccccc3)c(=O)c3cc(Br)ccc32)C(OC(C)=O)C1OC(C)=O (configuration not stated) ... label 0

Test call for this compound, please: COC(=O)C1=C(C)N(NC(N)=O)C2(N)N(NC(N)=O)C(C)=C(C(=O)OC)C12C#N (configuration not stated)
label 0

Test call for this compound, please: Cn1cc(NC(=O)Nc2cc(C(=O)Nc3cc(C(=O)Nc4ccc5cc(S(=O)(=O)O)cc(S(=O)(=O)O)c5c4)n(C)c3)n(C)c2)cc1C(=O)Nc1cc(C(=O)Nc2ccc3cc(S(=O)(=O)O)cc(S(=O)(=O)O)c3c2)n(C)c1
label 0

Test call for this compound, please: COc1cc([C@@H]2c3cc4c(cc3[C@@H](NC(=O)c3cccc(N)c3)C3COC(=O)[C@@H]32)OCO4)cc(OC)c1O (some centres not stated)
label 1

Test call for this compound, please: CCOC(=O)NN1C(=O)C(=P(c2ccccc2)(c2ccccc2)c2ccccc2)C(C(=O)OC)=C1C
label 0

Test call for this compound, please: CNC(C)Cc1ccc(O)cc1 (configuration not stated)
label 0

Test call for this compound, please: COCC1N=C(c2ccc(OC)c(OCc3ccccc3)c2OC)O[C@H]1c1ccccc1 (some centres not stated)
label 0

Test call for this compound, please: CCOC(=O)c1ncoc1[C@H]1COC(C)(C)O1
label 0

---

# Test system: OVCAR-8
# assay notes: NCI tumour cell line growth inhibition, 48 h
Activity calls are given as the source filed them. Cut-off read from the data, not from the text of the source: active = GI50 up to about 1.1 µM and inactive = higher.
value type: GI50

Known GI50 results, listed for orientation:
O=C(c1ccco1)C1CC(c2ccc3ccccc3c2O)=NN1 (configuration not stated) ... 83.2 µM (inactive)
Nc1ccc2nc3n(c2c1)C(c1c(F)cccc1F)SC3 (configuration not stated) ... > 100 µM (inactive)
C1=CC(=NN=P(c2ccccc2)(c2ccccc2)c2ccccc2)C=C1 ... > 100 µM (inactive)

Entry NC1CNC(=O)c2c(Cl)sc(Cl)c21 (configuration not stated) , system OVCAR-8: what GI50 was measured?
> 100 µM (inactive)

Entry O=S(=O)(O)c1cc(S(=O)(=O)O)c2c(/N=N/c3ccccc3)c(O)ccc2c1 , system OVCAR-8: what GI50 was measured?
> 100 µM (inactive)

Entry CC(=O)OC1COC(n2c(=S)n(-c3ccccc3)c(=O)c3cc(Br)ccc32)C(OC(C)=O)C1OC(C)=O (configuration not stated) , system OVCAR-8: what GI50 was measured?
36.1 µM (inactive)

Entry CO/C(=N\N=C(/c1ccccc1)C(F)(F)F)c1ccncc1 , system OVCAR-8: what GI50 was measured?
69.5 µM (inactive)

---

# System: CAKI-1
# assay notes: NCI tumour cell line growth inhibition, 48 h
Active and inactive are the calls of the source. No stated cut-off is given here; in the data, active = GI50 up to about 1.1 µM and inactive = higher.
value type: GI50

COc1cc2c(cc1OC)CC1c3cc(OC)c(OC)cc3CCN1CC2 (stereo not drawn) ... > 100 µM (inactive)
CCCn1cc2c(SC)nc(SC)nc2n1 ... > 100 µM (inactive)

Next item in the queue.
Entry C=C1[C@@](C)([C@@H]2CCCS2)[C@H]2C(C)=C[C@]1(C)n1c(=O)n(-c3ccccc3)c(=O)n12 , system CAKI-1: what GI50 was measured?
> 100 µM (inactive)

---

# Test system: HOP-62
# assay notes: NCI tumour cell line growth inhibition, 48 h
Calls of active or inactive are those of the source. No stated cut-off is given here; in the data, active = GI50 up to about 1.1 µM and inactive = higher.
value type: GI50

Known GI50 results, listed for orientation:
O=[N+]([O-])c1cccc(-c2ncnc(-c3cccc([N+](=O)[O-])c3)n2)c1 ... 17.8 µM (inactive)
Cc1ccccc1C1CC(=O)CC(c2ccccc2C)C12C(=O)NC(=O)NC2=O (stereo not given) ... > 100 µM (inactive)
COc1ccc(C2=CC3CCC2C3)cc1 (stereo not given) ... > 100 µM (inactive)
O/N=C1/COC(C(F)(F)F)(C(F)(F)F)C1 ... > 100 µM (inactive)

Which GI50 is listed for O=C1C2Cc3ccccc3CN2C(=O)N1CN1CCN(CN2C(=O)C3Cc4ccccc4CN3C2=O)CC1 (stereo not given) ?
> 100 µM (inactive)

---

Each entry below carries its recorded GI50.
# System: MOLT-4
# assay notes: NCI tumour cell line growth inhibition, 48 h
The source made the active and inactive calls. Cut-off read from the data, not from the text of the source: active = GI50 up to about 1.1 µM and inactive = higher.

Known GI50 results, listed for orientation:
NCCCN1CCN(CC(=O)O)CCN(CCCN)CCN(CC(=O)O)CC1 ... 7.14 µM (inactive)
OC1CN2CCS[C@H]2C(O)C1O (some centres not stated) ... > 100 µM (inactive)

Which GI50 is listed for O=C(/C=C/c1ccc(O)cc1)OC[C@@H](O)COC1OC(CO)C(O)C(O)C1O (some centres not stated) ?
> 100 µM (inactive)

Which GI50 is listed for C=CCNC(=O)NNC(O)(C(=O)OCC)C(F)(F)F (configuration not stated) ?
> 100 µM (inactive)

Which GI50 is listed for COc1ccc(C2=Nc3ccccc3SC(C)C2)cc1OC (configuration not stated) ?
14.5 µM (inactive)

Which GI50 is listed for O=C(c1ccco1)C1CC(c2ccc3ccccc3c2O)=NN1 (configuration not stated) ?
36.7 µM (inactive)

Which GI50 is listed for CCCCN(CCCC)C(=O)C(=O)CC(=O)/C=C/c1ccccc1 ?
> 100 µM (inactive)
